Listed variants paired with reported protein stability index
B1: CAMK2B (parent)
chain: YQQIKAGAYDFPSPEWDTVTPEAK

- Variants of: B1
- assay: protein stability index of a GFP-peptide fusion (GPS, HEK-293T) (PSI 1-6); higher = more stable;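 further: lentivirally expressed fusions sorted by FACS into six bins by GFP to DsRed ratio, PSI derived from sequencing read proportions per bin multiplied by bin number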
- settings: c terminus: a fixed tail appended
endpoint: protein stability index

INSERT INTO measurements (change, result) VALUES
  ('K24S', 3.93),
  ('D10H', 2.54),
  ('K5G', 3.88),
  ('A23R', 3.69),
  ('P12Y', 3.71),
  ('D10T', 2.61),
  ('Y1K', 4.88),
  ('K24R', 3.43),
  ('P12W', 3.5),
  ('T20V', 3.66),
  ('W16M', 4.31);
